Assay: Cytotoxicity against human C8166 cells by MTT assay
Format: cell-based
Overview of recorded CC50 for various compounds
# unit: µM | format: bare number

Below, 4 compounds whose answers are already recorded.
compound="COc1cc2c(c(O)c1OC)-c1c(cc(OC)c(OC)c1OC)[C@@H](OC(C)=O)[C@H](C)[C@H](C)[C@@H]2OC(=O)c1ccccc1 [KADANGUSTIN E]" unit_descriptor=µM observed_measurement=138
compound="COc1cc2c(c(O)c1OC)-c1c(cc3c(c1OC)OCO3)[C@@H](O)[C@H](C)[C@H](C)C2 [BINANKADSURIN A]" unit_descriptor=µM observed_measurement=227
compound="COc1cc(C(O)C(C)C(C)Cc2cc(OC)c3c(c2)OCO3)cc(O)c1OC (configuration not stated) [KADANGUSTIN I]" unit_descriptor=µM observed_measurement=35.1
compound="COc1c2c(cc3c1-c1c(cc4c(c1OC)OCO4)[C@@H]1O[C@H]3[C@H](C)[C@@H]1C)OCO2 [EPOXIDESCHISANDRIN C]" unit_descriptor=µM observed_measurement=220

Let us examine a further case.
Bench note: what CC50 did COc1ccc(C(c2ccc(OC)c(OC)c2)C(C)C(C)CO)cc1OC (configuration not stated) [KADANGUSTIN J] show?
247

// data source = ChEMBL document CHEMBL1149833
